# measured_target: Proteinase-activated receptor 1 (Homo sapiens, UniProt P25116)
# protocol_text: In vitro displacement of [3H]S-(p-F-Phe)-homoarginine-K Y-NH2 (at a concentration of 10 nM) from thrombin receptor (PAR-1) on the membranes of CHRF-288-11 cells
result_type: IC50 (nM)

# example entries with known answers
compound	IC50 / nM
COc1ccc(C[C@H](NC(=O)Nc2ccc3c(CN4CCCC4)cn(Cc4ccc(OC(F)(F)F)cc4)c3c2)C(=O)N[C@@H](CCCNC(=N)N)C(=O)NCC2CCCCC2)cc1	2500
COc1ccc(C[C@H](NC(=O)Nc2ccc3c(CN4CCCC4)cn(Cc4ccc(F)cc4)c3c2)C(=O)N[C@@H](CCCN=C(N)N)C(=O)NCc2ccccc2)cc1	2200

[A] COc1ccc(C[C@H](NC(=O)Nc2ccc3c(CN4CCCC4)cn(Cc4ccccc4C)c3c2)C(=O)N[C@@H](CCCN=C(N)N)C(=O)NCCCc2ccccc2)cc1
[B] COc1ccc(C[C@H](NC(=O)Nc2ccc3c(CN4CCCCC4)cn(Cc4ccc(OC(F)(F)F)cc4)c3c2)C(=O)N[C@@H](CCCNC(=N)N)C(=O)NCC2CCCCC2)cc1
Field: lower recorded IC50 (choose A or B ) Answer with the label corresponding to your selection.
A
(A: 1000 nM, B: 5600 nM)

----------
# measured_target: Proteinase-activated receptor 1 (Homo sapiens, UniProt P25116)
# Sequence (P25116 whole entry): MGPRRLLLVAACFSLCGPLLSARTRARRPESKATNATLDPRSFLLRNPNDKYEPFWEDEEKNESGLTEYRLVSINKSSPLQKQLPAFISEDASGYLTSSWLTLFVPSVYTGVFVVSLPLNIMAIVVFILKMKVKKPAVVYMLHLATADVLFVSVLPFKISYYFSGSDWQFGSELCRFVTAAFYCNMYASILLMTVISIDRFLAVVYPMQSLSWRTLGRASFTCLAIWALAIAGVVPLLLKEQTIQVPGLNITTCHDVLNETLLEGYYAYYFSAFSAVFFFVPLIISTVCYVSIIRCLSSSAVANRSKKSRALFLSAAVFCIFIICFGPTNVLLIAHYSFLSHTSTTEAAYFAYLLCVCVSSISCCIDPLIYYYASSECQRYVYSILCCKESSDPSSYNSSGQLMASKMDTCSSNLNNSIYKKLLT
# protocol_text: In vitro displacement of [3H]S-(p-F-Phe)-homoarginine-K Y-NH2 (at a concentration of 10 nM) from thrombin receptor (PAR-1) on the membranes of CHRF-288-11 cells
result_type: IC50 (nM)

Worked set:
molecule	measured_target	IC50, nM
COc1ccc(C[C@H](NC(=O)Nc2ccc3c(CN4CCCC4)cn(Cc4ccccc4Cl)c3c2)C(=O)N[C@@H](CCCN=C(N)N)C(=O)NCCCc2ccccc2)cc1	Proteinase-activated receptor 1 (Homo sapiens, UniProt P25116)	380
Cc1ccccc1Cn1cc(CN2CCCC2)c2ccc(NC(=O)N[C@@H](Cc3ccc([N+](=O)[O-])cc3)C(=O)N[C@@H](CCCN=C(N)N)C(=O)NCc3ccccc3)cc21	Proteinase-activated receptor 1 (Homo sapiens, UniProt P25116)	800
O=C(Nc1ccc2c(CN3CCCC3)cn(Cc3c(Cl)cccc3Cl)c2c1)N[C@@H](Cc1ccc(F)c(F)c1)C(=O)NC(Cc1c[nH]cn1)C(=O)NCc1ccccc1 (stereo partly specified)	Proteinase-activated receptor 1 (Homo sapiens, UniProt P25116)	1300

[A] NCC(NC(=O)[C@H](Cc1ccc(F)c(F)c1)NC(=O)Nc1ccc2c(CN3CCCC3)cn(Cc3c(Cl)cccc3Cl)c2c1)C(=O)NCc1ccccc1 (stereo partly specified)
[B] CCN(CC)Cc1cn(Cc2ccc(F)cc2)c2cc(NC(=O)N[C@@H](Cc3ccc(OC)cc3)C(=O)N[C@@H](CCCN=C(N)N)C(=O)NCC3CCCCC3)ccc12
[C] CSCCC(NC(=O)[C@H](Cc1ccc(F)c(F)c1)NC(=O)Nc1ccc2c(CN3CCCC3)cn(Cc3c(Cl)cccc3Cl)c2c1)C(=O)NCc1ccccc1 (stereo partly specified)
[D] NCCCC[C@H](NC(=O)[C@H](Cc1ccc(F)c(F)c1)NC(=O)Nc1ccc2c(CN3CCCC3)cn(Cc3c(Cl)cccc3Cl)c2c1)C(=O)NCc1ccccc1
List these items ordered by IC50, big to small. Answer format: the labels, ordered as requested.
C, B, A, D

----------
# measured_target: Proteinase-activated receptor 1 (Homo sapiens)
# Sequence (P25116 whole entry): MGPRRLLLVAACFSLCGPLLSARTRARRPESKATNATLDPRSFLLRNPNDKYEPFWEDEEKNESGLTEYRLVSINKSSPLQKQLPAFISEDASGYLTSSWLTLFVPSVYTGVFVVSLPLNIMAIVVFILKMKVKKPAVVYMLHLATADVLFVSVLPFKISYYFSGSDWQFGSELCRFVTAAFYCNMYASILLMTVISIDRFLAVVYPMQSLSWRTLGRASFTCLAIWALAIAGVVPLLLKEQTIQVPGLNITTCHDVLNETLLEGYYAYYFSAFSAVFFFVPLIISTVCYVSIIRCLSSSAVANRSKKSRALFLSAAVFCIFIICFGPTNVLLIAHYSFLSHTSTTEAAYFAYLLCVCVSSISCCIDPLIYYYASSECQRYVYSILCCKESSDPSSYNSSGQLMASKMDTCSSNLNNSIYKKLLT
# protocol_text: In vitro displacement of [3H]S-(p-F-Phe)-homoarginine-K Y-NH2 (at a concentration of 10 nM) from thrombin receptor (PAR-1) on the membranes of CHRF-288-11 cells
pIC50: −log10 of the molar value.
result_type: pIC50

// worked examples, pIC50 included
compound	pIC50
COc1ccc(C[C@H](NC(=O)Nc2ccc3c(CN4CCCCC4)cn(Cc4ccccc4C)c3c2)C(=O)N[C@@H](CCCN=C(N)N)C(=O)NCCCc2ccccc2)cc1	6.14
NCCC[C@H](NC(=O)[C@H](Cc1ccc(F)c(F)c1)NC(=O)Nc1ccc2c(CN3CCCC3)cn(Cc3c(Cl)cccc3Cl)c2c1)C(=O)NCc1ccccc1	6.30
CCN(CC)Cc1cn(Cc2cccc(C)c2)c2cc(NC(=O)N[C@@H](Cc3ccc(OC)cc3)C(=O)N[C@@H](CCCN=C(N)N)C(=O)NCCCc3ccccc3)ccc12	5.59

[P] COc1ccc(C[C@H](NC(=O)Nc2ccc3c(CN4CCCCC4)cn(Cc4cccc(C)c4)c3c2)C(=O)N[C@@H](CCCNC(=N)N)C(=O)NCC2CCCCC2)cc1
[Q] N=C(N)NCCC[C@H](NC(=O)[C@H](Cc1ccc([N+](=O)[O-])cc1)NC(=O)Nc1ccc2c(CN3CCCC3)cn(Cc3ccc(F)cc3)c2c1)C(=O)NCc1ccccc1
[R] NCCC(NC(=O)[C@H](Cc1ccc(F)c(F)c1)NC(=O)Nc1ccc2c(CN3CCCC3)cn(Cc3c(Cl)cccc3Cl)c2c1)C(=O)NCc1ccccc1 (some centres undefined)
rank_up(items): orders items by reported pIC50 in ascending numerical order. Returns: the labels arranged in the requested order.
P, Q, R

[A] CCN(CC)Cc1cn(Cc2ccccc2C)c2cc(NC(=O)N[C@@H](Cc3ccc(OC)cc3)C(=O)N[C@@H](CCCN=C(N)N)C(=O)NCCCc3ccccc3)ccc12
[B] NC(=O)NCCCC(NC(=O)[C@H](Cc1ccc(F)c(F)c1)NC(=O)Nc1ccc2c(CN3CCCC3)cn(Cc3c(Cl)cccc3Cl)c2c1)C(=O)NCc1ccccc1 (some centres undefined)
So which one has the bigger pIC50 here, A or B ? Write down the label attached to your selection.
B

[P] COc1ccc(C[C@H](NC(=O)Nc2ccc3c(CN4CCCC4)cn(Cc4ccc(F)cc4)c3c2)C(=O)N[C@@H](CCCN=C(N)N)C(=O)NCC2CCCCC2)cc1
[Q] Cc1ccccc1Cn1cc(CN2CCCC2)c2ccc(NC(=O)N[C@@H](Cc3ccc(C#N)cc3)C(=O)N[C@@H](CCCN=C(N)N)C(=O)NCc3ccccc3)cc21
Looking at P and Q , which one comes out lower in pIC50 terms? API: response body contains the label of the selected item.
Q

[A] NC(=O)CCC(NC(=O)[C@H](Cc1ccc(F)c(F)c1)NC(=O)Nc1ccc2c(CN3CCCC3)cn(Cc3c(Cl)cccc3Cl)c2c1)C(=O)NCc1ccccc1 (some centres undefined)
[B] COC(=O)c1ccc(Cn2cc(CN3CCCC3)c3ccc(NC(=O)N[C@@H](Cc4ccc(OC)cc4)C(=O)N[C@@H](CCCN=C(N)N)C(=O)NCC4CCCCC4)cc32)cc1
Sorting by pIC50 in descending order, would A or B appear first? Choose, then provide that item's label.
A

From: ChEMBL document CHEMBL1133903
